System: KM12
method-notes: NCI tumour cell line growth inhibition, 48 h
Counter-ions that a name gives are not always drawn. Active and inactive are the calls of the source. Rule as the data show it: active = GI50 up to about 1.1 µM and inactive = higher.
Form field: GI50 (one value per entry).

compound	GI50
O=C(NC1(C(=O)O)CC1c1ccccc1)c1ccccc1 (stereo unspecified)	> 100 µM (inactive)
CSc1nc(C)cc(=O)n1C1OC(COC(C)=O)C(OC(C)=O)C(OC(C)=O)C1OC(C)=O (stereo unspecified)	> 100 µM (inactive)
Cc1nn(-c2ccccc2)c(S)c1C(=O)c1ccccc1	33 µM (inactive)
CCCCCCCCCC1CC(=O)Oc2cccc(O)c21 (stereo unspecified)	12.5 µM (inactive)
N#C/C(=C\c1ccc[nH]1)C(=O)c1ccccc1	> 100 µM (inactive)
Cc1ccc(OCCn2cc(Nc3ccccc3)c(=O)[nH]c2=O)cc1	> 100 µM (inactive)
O=[N+]([O-])c1ccc(N2N=C(c3ccc4ccccc4c3O)CC2c2ccc(Cl)cc2Cl)c([N+](=O)[O-])c1 (stereo unspecified)	29 µM (inactive)
CN(C)CCNC(=O)c1ccc(Cl)c2cc3ccccc3nc12	0.807 µM (active)
CN1C(=O)C(O)C[C@@H]1c1ccccc1 (stereo partly specified)	> 100 µM (inactive)
CCOC(=O)C1=C(C)N(C2OC(COC(C)=O)C(OC(C)=O)C(OC(C)=O)C2OC(C)=O)C(=O)NC1c1ccccc1 (stereo unspecified)	> 100 µM (inactive)
O=C1CCC(=O)N1Cc1ccccc1/N=[N+](\[O-])c1ccccc1CN1C(=O)CCC1=O	> 100 µM (inactive)
O=C(Nc1ccc(Sc2ccc(/N=N/c3c(O)c(S(=O)(=O)O)cc4cc(S(=O)(=O)O)ccc34)cc2)cc1)c1ccc(/N=N/c2c(O)ccc3c(S(=O)(=O)O)cc(S(=O)(=O)O)cc23)cc1	39.9 µM (inactive)
CC(=O)Oc1c(-c2ccccc2)sc2ccccc12	18.4 µM (inactive)
C#CCCOC(=O)c1ccccc1OC(C)=O	> 100 µM (inactive)
O=C(CN1CCOCC1)c1ccc2c(c1)oc(=O)n2CCN1CCCCC1	> 100 µM (inactive)
CCOP(=O)(OCC)/C(=C\N1C(=O)CC(=O)NC1=S)C(=O)OC	> 100 µM (inactive)
CC(C(=O)O)c1cnn(-c2ccccc2)c1-n1cccc1 (stereo unspecified)	> 100 µM (inactive)
C[C@H]1CCCCC[C@@H]2CC(=O)CC2C(=O)CCC(=O)O1 (stereo partly specified)	> 100 µM (inactive)
O=C(/C=C/c1ccc(O)cc1)c1cc(-c2cc(CCC(=O)c3ccc(O)cc3O)ccc2O)c(O)cc1O	19.8 µM (inactive)
Cc1ccc(C(=O)/C=C2\Nc3cccnc3NC2=O)cc1	> 100 µM (inactive)
NCCSSCCN [CYSTAMINE HYDROCHLORIDE]	> 100 µM (inactive)
